target: rabbit anti-M6G polyclonal antibody; experiment: Cross-reactivity of the competitive M6G-ELISA (M6G-HRP tracer, biotinylated antibody); conditions: approximate, calculated from Figure 1; competing compound diluted in NBCS at 1, 10, 100 or 1000 nM; one site competition model; read-out: affinity constant K
For each record, write down the corresponding Kd.
Output spec: scalar in nM, unitless text.

Value of measured Kd for the entry COc1ccc2c3c1O[C@H]1[C@@H](O)C=C[C@H]4[C@@H](C2)N(C)CC[C@@]341 : 220

Reported Kd of CN1CC[C@]23c4c5ccc(O)c4O[C@H]2[C@@H](O[C@@H]2O[C@H](C(=O)O)[C@@H](O)[C@H](O)[C@H]2O)C=C[C@H]3[C@H]1C5 [M6G, Morphine-6-glucuronide] : 5.9

Record CN1CC[C@]23c4c5ccc(O[C@@H]6O[C@H](C(=O)O)[C@@H](O)[C@H](O)[C@H]6O)c4O[C@H]2[C@@H](O)C=C[C@H]3[C@H]1C5 [M3G, Morphine-3-glucuronide] . Reported Kd: 670

Value of Kd reported for the molecule CN1CC[C@]23c4c5ccc(O[C@@H]6O[C@H](C(=O)O)[C@@H](O)[C@H](O)[C@H]6O)c4O[C@H]2[C@@H](O[C@@H]2O[C@H](C(=O)O)[C@@H](O)[C@H](O)[C@H]2O)C=C[C@H]3[C@H]1C5 [M3,6G, Morphine-3-6-diglucuronide] is 3.4
